targetSystem: electric eel AChE [EeAChE] (Electrophorus electricus, UniProt O42275)
Sequence (O42275 24-633): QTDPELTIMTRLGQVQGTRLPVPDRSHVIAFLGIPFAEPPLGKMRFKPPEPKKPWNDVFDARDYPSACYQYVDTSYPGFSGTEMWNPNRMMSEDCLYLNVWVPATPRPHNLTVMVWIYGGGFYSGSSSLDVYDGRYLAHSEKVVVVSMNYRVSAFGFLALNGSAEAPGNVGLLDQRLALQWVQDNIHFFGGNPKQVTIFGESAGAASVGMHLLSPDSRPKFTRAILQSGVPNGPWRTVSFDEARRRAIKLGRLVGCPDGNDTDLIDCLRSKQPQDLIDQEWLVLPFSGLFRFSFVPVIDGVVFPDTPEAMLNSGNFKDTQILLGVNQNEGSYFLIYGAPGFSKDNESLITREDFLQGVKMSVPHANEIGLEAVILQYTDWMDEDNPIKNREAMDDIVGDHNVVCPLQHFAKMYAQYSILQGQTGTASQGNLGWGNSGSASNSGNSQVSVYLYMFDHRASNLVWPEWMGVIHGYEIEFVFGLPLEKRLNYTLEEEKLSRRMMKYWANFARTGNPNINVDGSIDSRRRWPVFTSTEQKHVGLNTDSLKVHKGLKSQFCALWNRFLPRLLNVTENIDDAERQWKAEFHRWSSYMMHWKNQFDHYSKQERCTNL
assayOverview: biochemical
Format: biochemical
conditions: Selectivity Index = EqBChE IC50/EeAChE IC50
Below is a list of entries, each paired with its recorded SI value.
Quick one: just the number, no unit, thanks!

Worked cases, answers included:
smilesText: CN1CCN(CCOc2ccc3cc(-c4cn(-c5ccccc5)nn4)c(=O)oc3c2)CC1
SI: 3

smilesText: O=c1oc2cc(OCCN3CCCCC3)ccc2cc1-c1cn(-c2ccccc2)nn1
SI: 173

smilesText: O=c1oc2cc(OCCCN3CCCCC3)ccc2cc1-c1cn(-c2ccccc2)nn1
SI: 3

smilesText: O=c1oc2cc(OCCN3CCCCC3)ccc2cc1-c1cn(Cc2cccc(Cl)c2)nn1
SI: 149

smilesText: O=c1oc2cc(OCCN3CCCCC3)ccc2cc1-c1cn(Cc2ccc(F)cc2)nn1
SI: 176

# input for lookup
Record O=c1oc2cc(OCCN3CCCCC3)ccc2cc1-c1cn(Cc2cccc(Br)c2)nn1 . Reported SI: 265

----------
Below is a list of entries, each paired with its recorded viability at 12.5 µM value.
System: H2O2-damaged SH-SY5Y cells
assayOverview: In vitro neuroprotection against H2O2 in SH-SY5Y (MTT)
conditions: Homo sapiens, SH-SY5Y, read-out: Cell viability (% of control)
Give your result in % as a bare value.

smilesText: O=c1oc2cc(OCCN3CCCCC3)ccc2cc1-c1cn(Cc2ccccc2)nn1
observedResult: 88

smilesText: O=c1oc2cc(OCCCN3CCCCC3)ccc2cc1-c1cn(Cc2ccccc2)nn1
observedResult: 68

Record COc1ccc(Cn2cc(-c3cc4ccc(OCCN5CCCCC5)cc4oc3=O)nn2)cc1 . Reported viability at 12.5 µM: 92

Record COc1cccc(Cn2cc(-c3cc4ccc(OCCN5CCCCC5)cc4oc3=O)nn2)c1 . Reported viability at 12.5 µM: 68

----------
assayOverview: Cytotoxicity (neurotoxicity) MTT assay in SH-SY5Y
Assay type: cell-based
conditions: human, SH-SY5Y neuroblastoma cells, 25.0 μM, 24 h, MTT, read-out: Cell viability (% of control)
reportedProperty: viability at 24 h, 25 µM (%)
Give your result in % as a bare value.

Worked cases, answers included:
smilesText: COc1cccc(Cn2cc(-c3cc4ccc(OCCN5CCCCC5)cc4oc3=O)nn2)c1
unitLabel: %
viability at 24 h, 25 µM: 70

smilesText: O=c1oc2cc(OCCN3CCCCC3)ccc2cc1-c1cn(Cc2ccccc2)nn1
unitLabel: %
viability at 24 h, 25 µM: 121

smilesText: O=c1oc2cc(OCCCN3CCCCC3)ccc2cc1-c1cn(Cc2ccccc2)nn1
unitLabel: %
viability at 24 h, 25 µM: 105

Record COc1ccc(Cn2cc(-c3cc4ccc(OCCN5CCCCC5)cc4oc3=O)nn2)cc1 . Reported viability at 24 h, 25 µM: 106

----------
Below is a list of entries, each paired with its recorded Ki value.
targetSystem: electric eel acetylcholinesterase (EeAChE) (Electrophorus electricus)
assayOverview: Enzymatic kinetic study, EeAChE
Assay type: biochemical
conditions: AChE; free enzyme; global non-linear regression to mixed-inhibition equation (Table 2); read-out: Ki (nM) ± SE
Give your result in nM as a bare value.

molecule: O=c1oc2cc(OCCN3CCCCC3)ccc2cc1-c1cn(-c2ccccc2)nn1 [Compound 1a]
unitLabel: nM
Ki: 30.8

# input for lookup
Record O=c1oc2cc(OCCN3CCCCC3)ccc2cc1-c1cn(Cc2ccccc2)nn1 [Compound 1h] . Reported Ki: 4.73

----------
targetSystem: electric eel acetylcholinesterase (EeAChE) (Electrophorus electricus, UniProt O42275)
Sequence (O42275 24-633): as the sequence (O42275 24-633) above
assayOverview: Enzymatic kinetic study, EeAChE
Type: biochemical
conditions: AChE; competitive inhibition constant (Table S2); read-out: Ki (nM) ± SD
reportedProperty: Ki (nM)
Give your result in nM as a bare value.

Record COc1cccc(Cn2cc(-c3cc4ccc(OCCN5CCCCC5)cc4oc3=O)nn2)c1 . Reported Ki: 0.508

----------
targetSystem: equine serum butyrylcholinesterase (EqBuChE) (Equus caballus)
Construct: equine serum BChE [EqBChE]; from tissue; host or cells: equine serum
assayOverview: Enzymatic kinetic study, EqBChE
Type: biochemical
conditions: BChE; competitive inhibition constant (Table S2); read-out: Ki (nM) ± SD
reportedProperty: Ki
A complete answer gives the number followed by the unit.

Worked cases, answers included:
smilesText: O=c1oc2cc(OCCN3CCCCC3)ccc2cc1-c1cn(Cc2ccccc2)nn1
targetSystem: equine serum butyrylcholinesterase (EqBuChE) (Equus caballus)
Ki: 980 nM
//
smilesText: COc1cccc(Cn2cc(-c3cc4ccc(OCCN5CCCCC5)cc4oc3=O)nn2)c1
targetSystem: equine serum butyrylcholinesterase (EqBuChE) (Equus caballus)
Ki: 615 nM

# input for lookup
Record O=c1oc2cc(OCCN3CCCCC3)ccc2cc1-c1cn(-c2ccccc2)nn1 . Reported Ki: 3500 nM

----------
Below is a list of entries, each paired with its recorded Ki value.
targetSystem: equine serum butyrylcholinesterase (EqBuChE) (Equus caballus, UniProt P81908)
Construct: equine serum BChE [EqBChE]; from tissue; host or cells: equine serum
Sequence (P81908 whole entry): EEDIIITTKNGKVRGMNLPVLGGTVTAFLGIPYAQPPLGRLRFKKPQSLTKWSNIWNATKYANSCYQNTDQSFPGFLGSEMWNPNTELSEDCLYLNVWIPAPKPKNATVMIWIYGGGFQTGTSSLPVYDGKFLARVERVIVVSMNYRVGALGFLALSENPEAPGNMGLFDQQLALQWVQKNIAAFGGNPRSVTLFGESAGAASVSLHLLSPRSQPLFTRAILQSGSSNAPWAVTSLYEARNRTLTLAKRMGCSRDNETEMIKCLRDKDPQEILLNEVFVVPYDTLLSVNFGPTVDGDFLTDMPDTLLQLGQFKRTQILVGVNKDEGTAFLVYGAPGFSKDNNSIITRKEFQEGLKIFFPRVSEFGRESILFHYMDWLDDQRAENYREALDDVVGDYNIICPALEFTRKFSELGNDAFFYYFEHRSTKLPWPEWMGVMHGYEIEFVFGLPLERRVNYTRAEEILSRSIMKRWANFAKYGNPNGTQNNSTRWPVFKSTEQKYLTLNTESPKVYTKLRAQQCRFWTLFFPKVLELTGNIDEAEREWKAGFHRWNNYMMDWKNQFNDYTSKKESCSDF
assayOverview: Enzymatic kinetic study, EqBChE
Type: biochemical
conditions: BChE; free enzyme; global non-linear regression (Table 2); read-out: Ki (nM) ± SE
Give your result in nM as a bare value.

Record O=c1oc2cc(OCCN3CCCCC3)ccc2cc1-c1cn(-c2ccccc2)nn1 [Compound 1a] . Reported Ki: 3940

Record O=c1oc2cc(OCCN3CCCCC3)ccc2cc1-c1cn(Cc2ccccc2)nn1 [Compound 1h] . Reported Ki: 1250

----------
targetSystem: hMAO-A (Homo sapiens)
Sequence (P21397 1-527): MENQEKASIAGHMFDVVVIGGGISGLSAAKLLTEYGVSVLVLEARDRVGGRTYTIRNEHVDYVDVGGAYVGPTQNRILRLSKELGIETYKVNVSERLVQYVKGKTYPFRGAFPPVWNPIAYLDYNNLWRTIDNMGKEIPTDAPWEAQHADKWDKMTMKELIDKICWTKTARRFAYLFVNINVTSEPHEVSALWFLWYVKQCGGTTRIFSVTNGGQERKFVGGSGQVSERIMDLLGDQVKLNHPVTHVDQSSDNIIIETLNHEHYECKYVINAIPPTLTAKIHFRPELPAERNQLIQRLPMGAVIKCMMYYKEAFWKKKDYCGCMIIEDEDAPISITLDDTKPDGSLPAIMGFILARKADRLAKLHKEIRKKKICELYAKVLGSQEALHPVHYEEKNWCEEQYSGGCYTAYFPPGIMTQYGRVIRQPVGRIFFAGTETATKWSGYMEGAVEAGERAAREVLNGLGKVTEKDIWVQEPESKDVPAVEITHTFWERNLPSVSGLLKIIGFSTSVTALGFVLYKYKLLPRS
reportedProperty: IC50 (µM)
Give your result in µM as a bare value.

Param item: O=c1oc2cc(OCCCN3CCCCC3)ccc2cc1-c1cn(Cc2ccccc2)nn1 ; param system: hMAO-A (Homo sapiens); output IC50: 31.1

----------
assayOverview: Cytotoxicity (neurotoxicity) MTT assay in SH-SY5Y
Type: cell-based
conditions: human, SH-SY5Y neuroblastoma cells, 50.0 μM, 24 h, MTT, read-out: Cell viability (% of control)
reportedProperty: viability at 24 h, 50 µM (%)
Give your result in % as a bare value.

Worked cases, answers included:
smilesText: O=c1oc2cc(OCCN3CCCCC3)ccc2cc1-c1cn(Cc2ccccc2)nn1
viability at 24 h, 50 µM, %: 111
//
smilesText: COc1ccc(Cn2cc(-c3cc4ccc(OCCN5CCCCC5)cc4oc3=O)nn2)cc1
viability at 24 h, 50 µM, %: 84
//
smilesText: COc1cccc(Cn2cc(-c3cc4ccc(OCCN5CCCCC5)cc4oc3=O)nn2)c1
viability at 24 h, 50 µM, %: 63

# input for lookup
Record O=c1oc2cc(OCCCN3CCCCC3)ccc2cc1-c1cn(Cc2ccccc2)nn1 . Reported viability at 24 h, 50 µM: 84

----------
targetSystem: electric eel acetylcholinesterase (EeAChE) (Electrophorus electricus)
assayOverview: Enzymatic kinetic study, EeAChE
Type: biochemical
conditions: AChE; free enzyme (Table S3); read-out: Ki ± SE (95% CI)
reportedProperty: pKi
// scale note: pKi = -log10(conc_M); give the bare number

Param item: O=c1oc2cc(OCCN3CCCCC3)ccc2cc1-c1cn(Cc2ccccc2)nn1 ; param system: electric eel acetylcholinesterase (EeAChE) (Electrophorus electricus); output pKi: 8.33

----------
targetSystem: equine serum BChE [EqBChE] (Equus caballus)
Construct: equine serum BChE [EqBChE]; from tissue; host or cells: equine serum
assayOverview: biochemical
conditions: Ellman method, read-out: IC50(nM) ± SD BChE (EqBChE)
Below is a list of entries, each paired with its recorded IC50 value.
Give your result in nM as a bare value.

Worked cases, answers included:
smilesText: O=c1oc2cc(OCCN3CCCCC3)ccc2cc1-c1cn(Cc2ccc(Cl)cc2)nn1
IC50 / nM: 2240

smilesText: O=c1oc2cc(OCCCCN3CCCCC3)ccc2cc1-c1cn(-c2ccccc2)nn1
IC50 / nM: 2410

smilesText: COc1ccc(Cn2cc(-c3cc4ccc(OCCN5CCCCC5)cc4oc3=O)nn2)cc1
IC50 / nM: 2080

smilesText: O=c1oc2cc(OCCCN3CCCCC3)ccc2cc1-c1cn(Cc2ccccc2)nn1
IC50 / nM: 3560

smilesText: O=c1oc2cc(OCCN3CCCCC3)ccc2cc1-c1cn(-c2ccccc2)nn1
IC50 / nM: 8660

smilesText: CN1CCN(CCOc2ccc3cc(-c4cn(-c5ccccc5)nn4)c(=O)oc3c2)CC1
IC50 / nM: 8140

Record O=c1oc2cc(OCCN3CCCCC3)ccc2cc1-c1cn(Cc2cccc(Cl)c2)nn1 . Reported IC50: 1950

Record O=c1oc2cc(OCCCCCN3CCCCC3)ccc2cc1-c1cn(-c2ccccc2)nn1 . Reported IC50: 3540

Record O=c1oc2cc(OCCN3CCCCC3)ccc2cc1-c1cn(Cc2cccc(Br)c2)nn1 . Reported IC50: 2090

Record CC1CCN(CCOc2ccc3cc(-c4cn(-c5ccccc5)nn4)c(=O)oc3c2)CC1 . Reported IC50: 11100

Record O=c1oc2cc(OCCN3CCCCC3)ccc2cc1-c1cn(Cc2ccc(Br)cc2)nn1 . Reported IC50: 1140

Record O=c1oc2cc(OCCCN3CCCCC3)ccc2cc1-c1cn(-c2ccccc2)nn1 . Reported IC50: 3970

Record O=c1oc2cc(OCCN3CCCCC3)ccc2cc1-c1cn(Cc2ccccc2)nn1 . Reported IC50: 3790

Record COc1ccccc1Cn1cc(-c2cc3ccc(OCCN4CCCCC4)cc3oc2=O)nn1 . Reported IC50: 2810

Record O=c1oc2cc(OCCN3CCCCC3)ccc2cc1-c1cn(Cc2ccc(F)cc2)nn1 . Reported IC50: 4120

Record COc1cccc(Cn2cc(-c3cc4ccc(OCCN5CCCCC5)cc4oc3=O)nn2)c1 . Reported IC50: 2880

Record O=c1oc2cc(OCCN3CCNCC3)ccc2cc1-c1cn(-c2ccccc2)nn1 . Reported IC50: 9840
